Reference for the values: patent US20200017592A1

# experimental.target: Macaca fascicularis IL-36R extracellular domain expressed with a C-terminal myc-myc-hexahistidine tag (Macaca fascicularis)
# method.description: SPR Biacore T200, mAb captured by anti-hFc, 37C, PBS-T pH 7.4
endpoint.name: koff (s⁻¹)
Entry rule: numbers only, all in s⁻¹.

Name the recorded koff for H4H14700P2 (antibody, human IgG4 S228P, kappa, V domains shown) VH: EVQLVESGGGLVQPGRSLRLSCAASGFTFDDYAMHWVRQTPGKGLEWVSVISWNSDVIAYSDSVKGRFTISRDNAKNSLYLQMNSLGTEDTALYYCAKGHNWNFFDYWGQGTLVTVSS VL: EIVLTQSPATLSLSPGERATLSCRASQSVSSYLAWYQQKPGQAPRLLIYNVANRATDIPARFSGSGSGTDFTLTISGLEPEDFAVYFCQQRSNWPLTFGGGTKVEIKR .
0.0018

Name the recorded koff for H4H14728P (antibody, human IgG4 S228P, kappa, V domains shown) VH: QVQLQESGPGLVKPSQTLSLTCTVSGGSISSADYYWSWIRQHPGKGLEWIGSIYYTGSTYYNPSLKSRLTISIDTSENQFSLKLTSLTAADTAVYYCASEEANWGSHFDSWGQGTLVTVSS VL: DIQMTQSPSSLSASVGDRVTITCRASQSIDNFLNWYQQKPGKAPKLLIYAASSLQSGVPSRFSGSGSGTDFTLTISSLQPEDFASYYCQHSHSAHPITFGQGTRLEIKR .
0.00139

Name the recorded koff for H4H14708P2 (antibody, human IgG4 S228P, kappa, V domains shown) VH: EVQLVESGGDLVQPGRSLRLSCAASGFTFDDYAMHWVRQAPGKGLEWVSVISWNSDVIAYSDSVKGRFTISRDNAKNSLYLQMNSLRTEDTALYYCTKGHKWSFFDYWGQGTLVTVSS VL: EIVLTQSPATLSLSPGERATLSCRASQSISSYLAWYQQKPGQAPRLLIFNVANRATDIPARFSGSGSGTDFTLTISSLEPEDFAVYYCQQRSNWPLTFGGGTKVEIKR .
0.00169

Name the recorded koff for H4H14709P (antibody, human IgG4 S228P, kappa, V domains shown) VH: EVQLVESGGGLVQPGGSLRLSCAASGFTFSDYAMSWVRQAPGKGLEWVSGISGNGGDTYYGDFVKGRFTISRDNSKNTLYLQMNSLRGEDTAAYFCVIDLDYWGQGTLVTVSS VL: DIQMTQSPSTLSASEGDRVTITCRASQSISSWLAWYQQKPGKAPRLLIYKASILGDGVPSRFSGSGSGTEFTLTISSLQPDDFATYYCHQYNSYLWTFGQGTKVEIKR .
0.000987
